ASSAY_SUMMARY: Human liver microsome clearance
Format: in vitro ADME
EXPERIMENTAL_CONTEXT: second value of RLM/HLM cell
Class Met: HLM CL (human liver microsome hepatic clearance) at least 10 mL/min/kg. Class Not met: HLM CL (human liver microsome hepatic clearance) below 10 mL/min/kg.

These solved cases illustrate the format of a correct answer.
# COMPOUND, CATEGORY
rows = [
    ("CC(C)Cc1nc2ncnn2c(O)c1Cc1ccc(C(C)(C)C)cc1", "Met"),
    ("Cc1nc2nc(C(F)(F)F)nn2c(O)c1Cc1ccc(C2(F)CCOCC2)cc1", "Met"),
    ("CCc1nc2nc(CO)nn2c(O)c1Cc1ccc(C(C)(C)C)cc1", "Not met"),
    ("CCc1nc2nc(N(C)C)nn2c(O)c1Cc1ccc(C(C)(C)C)cc1", "Met"),
    ("CCc1nc2n[nH]c(=O)n2c(O)c1Cc1ccc(C(C)(C)C)cc1", "Not met"),
]

**Query** # check: HLM CL (human liver microsome hepatic clearance) of CCc1nc2ncnn2c(O)c1Cc1ccc(C2(C)CCOCC2)cc1 is greater than or equal to 10 mL/min/kg
**Result** Met

**Query** # check: HLM CL (human liver microsome hepatic clearance) of CCc1nc2ncnn2c(O)c1Cc1ccc(C(C)(C)C)cc1 is greater than or equal to 10 mL/min/kg
**Result** Met

**Query** # check: HLM CL (human liver microsome hepatic clearance) of CCc1nc2nc(C(=O)N(C)C)nn2c(O)c1Cc1ccc(C(C)(C)C)cc1 is greater than or equal to 10 mL/min/kg
**Result** Met

**Query** # check: HLM CL (human liver microsome hepatic clearance) of Cc1nc2nc(C(F)(F)F)nn2c(O)c1Cc1ccc(C(C)(C)C)cc1 is greater than or equal to 10 mL/min/kg
**Result** Met

**Query** # check: HLM CL (human liver microsome hepatic clearance) of CC(C)(C)c1ccc(Cc2c(C3CCCC3)nc3ncnn3c2O)cc1 is greater than or equal to 10 mL/min/kg
**Result** Met

**Query** # check: HLM CL (human liver microsome hepatic clearance) of CC(C)c1nc2ncnn2c(O)c1Cc1ccc(C(C)(C)C)cc1 is greater than or equal to 10 mL/min/kg
**Result** Met

**Query** # check: HLM CL (human liver microsome hepatic clearance) of Cc1nc2nc(C)c(Cc3ccc(C(C)(C)C)cc3)c(O)n2n1 is greater than or equal to 10 mL/min/kg
**Result** Met

**Query** # check: HLM CL (human liver microsome hepatic clearance) of Cc1nc2cc(C(F)(F)F)nn2c(O)c1Cc1ccc(C(C)(C)C)cc1 is greater than or equal to 10 mL/min/kg
**Result** Met

**Query** # check: HLM CL (human liver microsome hepatic clearance) of CCc1nc2nc(COC)nn2c(O)c1Cc1ccc(C(C)(C)C)cc1 is greater than or equal to 10 mL/min/kg
**Result** Met

**Query** # check: HLM CL (human liver microsome hepatic clearance) of CCc1nc2ncnn2c(O)c1Cc1ccc(C(C)(C)COC)cc1 is greater than or equal to 10 mL/min/kg
**Result** Met

**Query** # check: HLM CL (human liver microsome hepatic clearance) of CCOc1nc2ncnn2c(O)c1Cc1ccc(C(C)(C)C)cc1 is greater than or equal to 10 mL/min/kg
**Result** Met

**Query** # check: HLM CL (human liver microsome hepatic clearance) of CCc1nc2nc(N)nn2c(O)c1Cc1ccc(C(C)(C)C)cc1 is greater than or equal to 10 mL/min/kg
**Result** Not met

**Query** # check: HLM CL (human liver microsome hepatic clearance) of CCOc1nc2nc(CC)c(Cc3ccc(C(C)(C)C)cc3)c(O)n2n1 is greater than or equal to 10 mL/min/kg
**Result** Met

**Query** # check: HLM CL (human liver microsome hepatic clearance) of CC(C)(C)c1ccc(Cc2c(C3CCOC3)nc3ncnn3c2O)cc1 (centres unmarked) is greater than or equal to 10 mL/min/kg
**Result** Not met
